// provenance: patent US8802866B2

# measurement target: recombinant PI3Kalpha (shortened form of the catalytic subunit) (Homo sapiens, UniProt P42336)
# Sequence (P42336 151-1068 limits assumed): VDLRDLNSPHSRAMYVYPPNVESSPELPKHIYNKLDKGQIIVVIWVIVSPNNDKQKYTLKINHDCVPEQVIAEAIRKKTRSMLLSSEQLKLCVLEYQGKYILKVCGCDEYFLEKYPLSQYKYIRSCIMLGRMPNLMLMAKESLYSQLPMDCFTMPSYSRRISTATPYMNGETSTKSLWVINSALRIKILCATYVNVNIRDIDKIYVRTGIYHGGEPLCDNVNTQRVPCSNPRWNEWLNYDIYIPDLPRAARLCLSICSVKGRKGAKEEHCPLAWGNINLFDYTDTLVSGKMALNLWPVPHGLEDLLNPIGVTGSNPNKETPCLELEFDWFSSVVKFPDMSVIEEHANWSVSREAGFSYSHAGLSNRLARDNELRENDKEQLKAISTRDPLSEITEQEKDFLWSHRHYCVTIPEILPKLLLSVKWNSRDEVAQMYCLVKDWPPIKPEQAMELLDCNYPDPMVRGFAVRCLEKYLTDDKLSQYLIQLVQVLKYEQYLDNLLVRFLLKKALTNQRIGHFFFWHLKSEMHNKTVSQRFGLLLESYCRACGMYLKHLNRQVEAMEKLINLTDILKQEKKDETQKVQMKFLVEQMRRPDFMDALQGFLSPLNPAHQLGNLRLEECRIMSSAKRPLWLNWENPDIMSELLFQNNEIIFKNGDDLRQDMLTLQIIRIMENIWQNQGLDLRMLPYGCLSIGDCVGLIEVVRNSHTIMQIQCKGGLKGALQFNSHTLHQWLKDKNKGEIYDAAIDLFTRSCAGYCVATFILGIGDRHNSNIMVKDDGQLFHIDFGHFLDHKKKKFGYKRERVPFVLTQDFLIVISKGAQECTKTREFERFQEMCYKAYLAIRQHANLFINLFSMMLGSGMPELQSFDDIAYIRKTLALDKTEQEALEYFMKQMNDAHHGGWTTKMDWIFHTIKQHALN
# measurement protocol: BIACORE PI3K binding assay (SPR)
# experimental context: 25° C.
pKd: −log10 of the molar value.
measurement name: pKd

Task item: Quick one: pKd of CN1CCN(c2ccc(-n3c(-c4cc(-c5cnc6[nH]c(C(F)(F)F)cc6c5)ccn4)cn(C)c3=O)cc2C(F)(F)F)CC1 ?
Reply: 5.00 to 7.00

Task item: Cool, now COc1cc(-c2ccnc(-c3cn(C)c(=O)n3-c3ccc(C(C)(C)C#N)cc3)c2)ccn1
Reply: 5.00 to 7.00

Task item: Cool, now Cn1cc(-c2cc(-c3cnc4c(c3)CCN4)ccn2)n(-c2ccc(C(C)(C)C#N)cc2)c1=O
Reply: 7.00 to 10.00

Task item: Cool, now Cn1cc(-c2cc(-c3cnc4ccccc4c3)ccn2)n(-c2ccc(N3CCNCC3)c(C(F)(F)F)c2)c1=O
Reply: 5.00 to 7.00

====

# measurement target: DNA-PK protein complex (Homo sapiens)
# measurement protocol: Biochemical DNA-PK assay (FlashPlate)
pIC50: −log10 of the molar value.
measurement name: pIC50

Task item: Quick one: pIC50 of Cn1cc(-c2cc(-c3cnc4c(c3)CCC(=O)N4)ccn2)n(-c2ccc(C(C)(C)C#N)cc2)c1=O [Example A45] ?
Reply: 7.00 to 10.00

Task item: Cool, now CN1CCN(c2cc(C#N)cc(-n3c(-c4cc(-c5cnc6[nH]ccc6c5)ccn4)cn(C)c3=O)c2)CC1 [Example A98]
Reply: 5.00 to 7.00

Task item: Cool, now Cn1cc(-c2cc(-c3cccnc3)ccn2)n(-c2ccc(C(C)(C)C#N)cc2)c1=O [Example A10]
Reply: 7.00 to 10.00

Task item: Cool, now Cn1cc(-c2cncc(-c3cnc4ccccc4c3)c2)n(-c2ccc(C(C)(C)C#N)cc2)c1=O [Example A2]
Reply: 5.00 to 7.00

Task item: Cool, now N#Cc1cccc(-n2c(-c3cc(-c4cnc5[nH]ccc5c4)ccn3)cn(C(F)F)c2=O)c1 [Example A75]
Reply: 7.00 to 10.00

Task item: Cool, now CN1CCN(c2ccc(-n3c(-c4cc(-c5cnc6[nH]ccc6c5)ccn4)cn(C)c3=O)cc2)CC1 [Example A50]
Reply: 7.00 to 10.00

Task item: Cool, now CN1CCN(c2ccc(-n3c(-c4cc(-c5cnc(N)c(C(F)(F)F)c5)ccn4)cn(C)c3=O)cc2C#N)CC1 [Example A82]
Reply: 7.00 to 10.00

Task item: Cool, now Cn1cc(-c2cc(-c3cnc4ccccc4c3)ccn2)n(-c2ccc(C(C)(C)C#N)cc2)c1=O [Example A1]
Reply: 7.00 to 10.00

Task item: Cool, now Cn1cc(-c2cc(-c3cnc4[nH]ncc4c3)ccn2)n(-c2ccc(N3CCNCC3)c(C(F)(F)F)c2)c1=O [Example A46]
Reply: 7.00 to 10.00

Task item: Cool, now Cn1cc(-c2cc(-c3cc(F)c(N)c(C(F)(F)F)c3)ccn2)n(-c2ccc(C(C)(C)C#N)cc2)c1=O [Example A107]
Reply: 7.00 to 10.00

Task item: Cool, now CN1CCN(c2ccc(-n3c(-c4cc(-c5ccc6[nH]ccc6c5)ccn4)cn(C)c3=O)cc2C(F)(F)F)CC1 [Example A102]
Reply: 5.00 to 7.00

Task item: Cool, now Cn1cc(-c2cc(-c3cnc4[nH]ccc4c3)ccn2)n(-c2cc(F)cc(C#N)c2)c1=O [Example A96]
Reply: 7.00 to 10.00

Task item: Cool, now Cn1cc(-c2cc(-c3ccc(N)c(C(F)(F)F)c3)ccn2)n(-c2ccc(C(C)(C)C#N)cc2)c1=O [Example A93]
Reply: 7.00 to 10.00

Task item: Cool, now CCn1cc(-c2cc(-c3cnc4[nH]ccc4c3)ccn2)n(-c2ccc(C(C)(C)C#N)cc2)c1=O [Example A24]
Reply: 7.00 to 10.00

Task item: Cool, now Cn1cc(-c2cc(-c3ccc(N)nc3)ccn2)n(-c2ccc(N3CCNCC3)c(C(F)(F)F)c2)c1=O [Example A59]
Reply: 7.00 to 10.00
